I'd be grateful if you could share measured polymerase ribozyme fitness (log ratio) for these entries.
B1: TPR 5TU (parent)
chain: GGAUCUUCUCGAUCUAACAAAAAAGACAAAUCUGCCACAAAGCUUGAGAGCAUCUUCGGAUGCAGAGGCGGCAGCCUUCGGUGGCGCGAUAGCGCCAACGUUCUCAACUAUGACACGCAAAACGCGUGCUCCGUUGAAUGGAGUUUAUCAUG

# Variants of: B1
# Procedure details: polymerase ribozyme fitness, log enrichment relative to wild type (log ratio); higher = more active; in vitro selection for triplet polymerase activity
Fewer inactive variants are shown than the library holds.
Numbers only.

| Variant description | polymerase ribozyme fitness (log ratio) |
| --- | --- |
| C36G G84A | -4.19 |
| C85U G124U | -0.801 |
| C76U C105G | -3.71 |

Report polymerase ribozyme fitness (log ratio) for each item below.
1. U55A A60G A137C
2. U82C G94A
3. U13G G136A A137G C149U
4. C14U U135C
5. G50C A91G
6. U82C G84A G117U
7. A12U G48A C96A
8. G84U A121C

[-3, -1.35, -3.07, -3.88, -4, -0.688, -2.05, -1.74]

Provide each entry's polymerase ribozyme fitness (log ratio) from the list below.
1. C54G C96U A98G
2. C35U C38G U56A

1: -1.19; 2: -1.43
